- assaySystem: CYP2D6 (Homo sapiens, UniProt P10635)
- Sequence (P10635 whole entry): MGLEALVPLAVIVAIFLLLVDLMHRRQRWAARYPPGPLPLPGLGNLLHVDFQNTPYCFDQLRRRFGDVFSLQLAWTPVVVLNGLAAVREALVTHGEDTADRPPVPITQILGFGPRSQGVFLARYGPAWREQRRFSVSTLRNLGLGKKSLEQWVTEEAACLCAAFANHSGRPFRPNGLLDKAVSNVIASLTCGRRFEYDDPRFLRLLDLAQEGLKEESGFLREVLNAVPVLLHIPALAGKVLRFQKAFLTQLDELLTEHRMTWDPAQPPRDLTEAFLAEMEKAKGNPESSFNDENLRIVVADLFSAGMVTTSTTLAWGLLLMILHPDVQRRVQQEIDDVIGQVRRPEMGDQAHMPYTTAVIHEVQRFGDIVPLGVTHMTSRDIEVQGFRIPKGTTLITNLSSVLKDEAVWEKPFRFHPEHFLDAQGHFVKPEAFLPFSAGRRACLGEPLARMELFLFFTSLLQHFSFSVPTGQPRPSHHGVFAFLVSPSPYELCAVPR
- assaySummary: Inhibition of CYP2D6 at 3 uM by Gentest method
- Format: ADME
measuredParameter: inhibition at 3 µM (%)
Return type: number; implicit unit %.

Lookup result for `O=C(NCCCCN1CCCCC1)Nc1ccc(-c2ccccc2)nc1` ; measured inhibition at 3 µM: 6

Field inhibition at 3 µM (entry `COc1ccccc1-c1ccc(NC(=O)NCCCCN2CCCCC2)cn1` ) reads 8

Record summary for `O=C(NCCCCN1CCCCC1)Nc1ccc(-c2ccc(F)nc2)nc1` : reported inhibition at 3 µM = 8

Field inhibition at 3 µM (entry `O=C(NCCCCN1CCCCC1)Nc1ccc(-c2ccccn2)cc1` ) reads 15

Given item `O=C(NCCCCN1CCCCC1)Nc1ccc(-c2ccccn2)nc1` , the value recorded as its inhibition at 3 µM is 22

Please fill in: inhibition at 3 µM reported for `O=C(NCCCCN1CCCCC1)Nc1ccc(-c2ccc(F)cc2)nc1` = 19

====

- assaySystem: Alpha-2A adrenergic receptor (Homo sapiens)
- Sequence (P08913 whole entry): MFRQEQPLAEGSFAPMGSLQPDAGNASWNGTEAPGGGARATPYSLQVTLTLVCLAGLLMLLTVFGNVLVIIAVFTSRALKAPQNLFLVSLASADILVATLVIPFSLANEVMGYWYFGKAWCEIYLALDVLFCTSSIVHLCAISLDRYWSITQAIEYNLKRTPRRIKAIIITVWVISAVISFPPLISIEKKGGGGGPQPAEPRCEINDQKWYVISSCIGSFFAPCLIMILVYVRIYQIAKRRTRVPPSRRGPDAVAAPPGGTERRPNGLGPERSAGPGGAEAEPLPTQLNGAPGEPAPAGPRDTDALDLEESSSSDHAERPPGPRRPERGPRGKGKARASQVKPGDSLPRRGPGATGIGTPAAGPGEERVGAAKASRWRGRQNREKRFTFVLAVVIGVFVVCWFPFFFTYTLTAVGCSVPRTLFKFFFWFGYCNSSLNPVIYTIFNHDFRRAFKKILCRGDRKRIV
- assaySummary: Binding affinity to adrenergic alpha2A receptor
measuredParameter: pIC50
Conceptually, pIC50 converts a concentration in mol/L into minus its log10.

Per the records, this molecule ( `O=C(NCCCCN1CCCCC1)Nc1ccc(-c2ccc(F)cc2)nc1` ) has pIC50 equal to 5.12

====

- System: Rattus norvegicus
- assaySummary: Cmax in Long Evans rat at 3 mg/kg, po
- Format: ADME, organism-based
- Set-up: dose 3 mg/kg, route oral
- recordedConditions: in vivo
measuredParameter: Cmax (ng/mL)
Return type: number; implicit unit ng/mL.

Lab entry: Rattus norvegicus assay, molecule `O=C(NCCCCN1CCCCC1)Nc1ccc(-c2ccc(F)cc2)nc1` , Cmax = 40

====

- assaySystem: CYP3A4 (Homo sapiens)
- Sequence (P08684 whole entry): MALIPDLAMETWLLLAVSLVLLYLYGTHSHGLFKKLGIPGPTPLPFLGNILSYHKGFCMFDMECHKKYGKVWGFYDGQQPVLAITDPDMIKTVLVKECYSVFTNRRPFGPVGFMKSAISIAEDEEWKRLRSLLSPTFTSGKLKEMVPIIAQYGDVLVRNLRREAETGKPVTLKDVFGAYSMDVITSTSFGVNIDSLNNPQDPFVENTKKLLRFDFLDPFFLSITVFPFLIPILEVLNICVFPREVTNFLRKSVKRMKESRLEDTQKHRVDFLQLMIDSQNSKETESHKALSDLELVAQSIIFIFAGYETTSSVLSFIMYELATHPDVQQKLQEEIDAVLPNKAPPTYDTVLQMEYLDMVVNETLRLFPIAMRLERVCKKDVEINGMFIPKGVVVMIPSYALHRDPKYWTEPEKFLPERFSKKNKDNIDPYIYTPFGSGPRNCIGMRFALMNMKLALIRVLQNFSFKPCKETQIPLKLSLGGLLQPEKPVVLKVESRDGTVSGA
- assaySummary: Inhibition of CYP3A4 at 3 uM by Gentest method
- Type: ADME
Could you please report measured inhibition at 3 µM for the items listed next?
A number alone suffices; assume %.

GET /value?item= `O=C(NCCCCN1CCCCC1)Nc1ccc(-c2ccccc2F)cc1` &field=inhibition at 3 µM returns -17

Value of inhibition at 3 µM reported for the compound `O=C(NCCCCN1CCCCC1)Nc1ccc(-c2ccc(F)cc2)cc1` is -13

Briefly, inhibition at 3 µM measured for `O=C(NCCCCN1CCCCC1)Nc1ccc(-c2ccc(F)nc2)nc1` : -19

Measured inhibition at 3 µM, `O=C(NCCCCN1CCCCC1)Nc1ccc(-c2ccccc2)nc1` : -21

Summary for this compound, `O=C(NCCCCN1CCCCC1)Nc1ccc(-c2ccccn2)cc1` : inhibition at 3 µM is -2

The measured inhibition at 3 µM associated with `COc1ccccc1-c1ccc(NC(=O)NCCCCN2CCCCC2)cn1` reads 8

Input `O=C(NCCCCN1CCCCC1)Nc1ccc(-c2ccc(F)cc2)nc1` . Output inhibition at 3 µM: 0

Given item `O=C(NCCCCN1CCCCC1)Nc1ccc(-c2ccccc2F)nc1` , the value recorded as its inhibition at 3 µM is -3

Reported inhibition at 3 µM for `O=C(NCCCCN1CCCCC1)Nc1ccc(-c2ccccn2)nc1` was 0

For `COc1ccccc1-c1ccc(NC(=O)NCCCCN2CCCCC2)cc1` the compound record lists inhibition at 3 µM as 5

// sample `O=C(NCCCCN1CCCCC1)Nc1ccc(-c2ccc(F)nc2)cc1` , its inhibition at 3 µM was -22
